Recorded values, source patent US11040035B2.

Quick list: IC50 per entry.
- system name: AHR (Homo sapiens)
- Sequence (P35869 11-848): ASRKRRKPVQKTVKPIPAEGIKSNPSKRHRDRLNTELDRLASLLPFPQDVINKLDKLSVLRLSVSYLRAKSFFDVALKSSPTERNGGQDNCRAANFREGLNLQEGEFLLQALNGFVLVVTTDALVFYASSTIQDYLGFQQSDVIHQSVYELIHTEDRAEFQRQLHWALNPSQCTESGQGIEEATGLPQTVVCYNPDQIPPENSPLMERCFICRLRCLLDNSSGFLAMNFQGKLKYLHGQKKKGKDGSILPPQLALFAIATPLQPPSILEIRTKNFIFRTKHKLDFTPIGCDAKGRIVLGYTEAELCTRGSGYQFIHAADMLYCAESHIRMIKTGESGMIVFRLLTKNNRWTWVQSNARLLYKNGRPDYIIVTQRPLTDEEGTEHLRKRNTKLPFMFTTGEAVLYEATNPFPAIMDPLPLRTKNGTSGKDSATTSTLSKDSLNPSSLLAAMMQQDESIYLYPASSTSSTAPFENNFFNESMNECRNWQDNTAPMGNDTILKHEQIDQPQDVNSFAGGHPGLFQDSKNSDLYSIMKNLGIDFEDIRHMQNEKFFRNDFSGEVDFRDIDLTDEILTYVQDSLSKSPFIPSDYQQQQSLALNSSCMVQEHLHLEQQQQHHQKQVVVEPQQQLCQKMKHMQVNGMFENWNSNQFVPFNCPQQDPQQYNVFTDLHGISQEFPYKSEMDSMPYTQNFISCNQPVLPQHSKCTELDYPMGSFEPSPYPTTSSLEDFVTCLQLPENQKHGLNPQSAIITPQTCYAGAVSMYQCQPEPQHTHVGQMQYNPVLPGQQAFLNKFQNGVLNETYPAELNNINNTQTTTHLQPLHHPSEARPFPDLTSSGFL
- experimental details: In vitro assay 1: antagonism in human cell line (transactivation assay, kynurenic acid prestimulated)
- test conditions: Assay 1: AHR-luc Hum Antagonism IC50 [M], 150 μM kynurenic acid, 20 hours, firefly luciferase
quantity measured: IC50 (M)

INSERT INTO assay_data (compound, qual, result_value) VALUES
  ('O=C(NC(CO)C(F)(F)F)c1cc(-c2ccc(Cl)cc2)nn(-c2cccc(F)c2)c1=O (single isomer, unassigned; (-)) [Example 98]', '>', '2e-05'),
  ('COc1ccc(-c2cc(C(=O)N[C@@H]3CCCC[C@@H]3O)c(=O)n(-c3cccc(F)c3)n2)cc1 (single isomer, unassigned) [Example 107]', '=', '1.76e-08'),
  ('O=C(NC(CO)(CO)C(F)(F)F)c1cc(-c2ccc(Cl)cc2)nn(-c2cccc(F)c2)c1=O', '=', '1.92e-08'),
  ('O=C(N[C@@H]1CCCC[C@@H]1O)c1cc(-c2ccc(Cl)c(F)c2)nn(-c2cccc(F)c2)c1=O (relative stereo)', '=', '8.51e-08'),
  ('CN1CCC(O)(CNC(=O)c2cc(-c3ccc(Cl)cc3)nn(-c3cccc(F)c3)c2=O)CC1', '=', '1.56e-06'),
  ('C[C@@H](CO)NC(=O)c1cc(-c2ccc(Cl)c(F)c2)nn(-c2cc(F)cc(F)c2)c1=O', '=', '3.7e-07'),
  ('CC(CO)NC(=O)c1cc(-c2ccc(Cl)cc2)nn(-c2cccc(Cl)c2)c1=O (stereo not shown)', '=', '3e-07');
